// data source = patent US10457707B2

Assay: Cytotoxicity assay (CellTiter-Glo cell viability, 72 hours)
Type: cell-based
Conditions: African green monkey
*1 amine or outer side, *2 acyl side, *3 side chain or, on linkers, in order; H or OH if unused. Where a SMILES comes first, the peptide text is derived from it. Bridges are numbered along the chain shown (N, C = ends). [ ]: non-standard residue; d: D form. The star is where a group is joined. ξ: configuration not given here. Phe(3,5-F2) = N[C@@H](Cc1cc(F)cc(F)c1)C(=O)O; NH(4-OCF3-phenyl) = FC(F)(F)Oc1ccc(N*)cc1; NH(4-Cl-2-F-phenyl) = Fc1cc(Cl)ccc1N*; Pro(4R-Me) = C[C@H]1CN[C@H](C(=O)O)C1; NMeT = CN[C@H](C(=O)O)[C@@H](C)O; ξNMeThr = CNC(C(=O)O)[C@@H](C)O; aThr = C[C@H](O)[C@H](N)C(=O)O; CO = O=C([*:1])[*:2]
Readout: IC50 at 72 h (µM)
Respond with the bare value in µM.

Request: Need IC50 at 72 h of C[C@@H]1C[C@H]2C(=O)O[C@@H](C)[C@H](NC(=O)[C@H](Cc3cc(F)cc(F)c3)NC(=O)Nc3ccc(OC(F)(F)F)cc3)C(=O)N3CCC[C@H]3C(=O)N(C)[C@@H]([C@@H](C)O)C(=O)N[C@@H](C)C(=O)N2C1 [Compound 41] ({NH(4-OCF3-phenyl)-CO}-[Phe(3,5-F2)][aThr]P[NMeT]A[Pro(4R-Me)]; ester 2-C) , thanks.
Response: 23.9

Request: // IC50 at 72 h lookup, key: C[C@@H]1C[C@H]2C(=O)O[C@@H](C)[C@H](NC(=O)[C@H](Cc3cc(F)cc(F)c3)NC(=O)Nc3ccc(Cl)cc3F)C(=O)N3CCC[C@H]3C(=O)N(C)C([C@@H](C)O)C(=O)N[C@@H](C)C(=O)N2C1 (stereo partly drawn) [Compound 313] ({NH(4-Cl-2-F-phenyl)-CO}-[Phe(3,5-F2)][aThr]P[ξNMeThr]A[Pro(4R-Me)]; ester 2-C)
Response: 13.5

Request: IC50 at 72 h lookup needed for C[C@@H]1C[C@H]2C(=O)OC[C@H](NC(=O)[C@H](Cc3cc(F)cc(F)c3)NC(=O)Nc3ccc4c(c3)OCO4)C(=O)N3CCC[C@H]3C(=O)N3CCCC[C@H]3C(=O)N[C@@H](C)C(=O)N2C1 [Compound 195] , thanks.
Response: 84.1
